Numbers sourced from patent US11667675B2.

# SYSTEM_NAME: human MASP1 (Homo sapiens, UniProt P48740)
# Construct: Ig-kappa secretion signal (N, cleaved yes)
# Sequence (P48740 297-448): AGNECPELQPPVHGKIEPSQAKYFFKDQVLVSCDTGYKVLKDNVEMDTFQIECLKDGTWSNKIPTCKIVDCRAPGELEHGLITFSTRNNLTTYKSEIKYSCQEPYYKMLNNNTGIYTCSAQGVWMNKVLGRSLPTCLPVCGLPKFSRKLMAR
# Sequence (P48740 449-699): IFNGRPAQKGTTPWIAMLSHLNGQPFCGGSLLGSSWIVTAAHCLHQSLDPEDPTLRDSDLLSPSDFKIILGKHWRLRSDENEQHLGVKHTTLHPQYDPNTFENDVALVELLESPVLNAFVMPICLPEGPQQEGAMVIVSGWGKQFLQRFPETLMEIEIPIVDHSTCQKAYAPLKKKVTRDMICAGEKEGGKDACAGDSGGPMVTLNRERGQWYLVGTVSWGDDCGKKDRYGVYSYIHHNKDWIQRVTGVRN
# ASSAY_PROCEDURE: Biochemical human MASP1 assay (FRET substrate)
# CONDITION_CONTEXT: average IC50
pIC50: −log10 of the molar value. Bridge positions count the residues as written; N and C are the ends. Square brackets hold non-standard residues; d marks the D form. Peptide text beside a SMILES is read from it. Oic = O=C(O)[C@@H]1C[C@@H]2CCCC[C@@H]2N1; tBuAla = CC(C)(C)C[C@H](N)C(=O)O; Pen = CC(C)(S)[C@H](N)C(=O)O; ΔPro = O=C(O)[C@@H]1C=CCN1; NMeC = CN[C@@H](CS)C(=O)O; Sar = CNCC(=O)O
PROPERTY_LABEL: pIC50

1) CC[C@H](C)[C@H](NC(=O)CNC)C(=O)N[C@H]1CSSC(C)(C)[C@@H](C(=O)N[C@H](C(=O)N2CCC[C@H]2C(N)=O)[C@@H](C)CC)NC(=O)[C@H]([C@@H](C)CC)NC(=O)[C@@H]2C[C@@H]3CCCC[C@@H]3N2C(=O)[C@@H]2CCCN2C(=O)[C@H](CC(C)C)NC(=O)[C@H](CO)NC(=O)[C@H](CCCNC(=N)N)NC(=O)[C@H](CO)NC1=O [Example 376] (H-[Sar]ICSRSLP[Oic]I[Pen]IP-NH2; disulfide 3-11)
8.96
2) CC[C@H](C)[C@H](NC(=O)[C@H](C)N)C(=O)N[C@H]1CSSC[C@@H](C(=O)N[C@H](C(=O)N2CCC[C@H]2C(=O)N[C@@H](CC(=O)O)C(N)=O)[C@@H](C)CC)N(C)C(=O)[C@H]([C@@H](C)CC)NC(=O)[C@@H]2C[C@@H]3CCCC[C@@H]3N2C(=O)[C@@H]2CCCN2C(=O)[C@H](CC(C)C)NC(=O)[C@H](CO)NC(=O)[C@H](CCCNC(=N)N)NC(=O)[C@H](CO)NC1=O
8.32
3) [2H][C@@H]1[C@H]([2H])CN2C(=O)[C@H](CC(C)C)NC(=O)[C@H](CO)NC(=O)[C@H](CCCNC(=N)N)NC(=O)[C@H](CO)NC(=O)[C@@H](NC(=O)[C@@H](NC(=O)[C@H](C)N)[C@@H](C)CC)CSSC(C)(C)[C@@H](C(=O)N[C@H](C(=O)N3CCC[C@H]3C(=O)N[C@@H](CC(=O)O)C(=O)O)[C@@H](C)CC)NC(=O)[C@H]([C@@H](C)CC)NC(=O)[C@@H]3C[C@@H]4CCCC[C@@H]4N3C(=O)[C@H]12
8.67
4) CC[C@H](C)[C@H](NC(=O)[C@H](C)N)C(=O)N[C@H]1CSSC[C@@H](C(=O)N[C@H](C(=O)N2CCC[C@H]2C(=O)N[C@@H](CC(=O)O)C(N)=O)[C@@H](C)CC)N(C)C(=O)[C@H]([C@@H](C)CC)NC(=O)[C@@H]2CCCN2C(=O)[C@@H]2CCCN2C(=O)[C@H](CC(C)(C)C)NC(=O)[C@H](CO)NC(=O)[C@H](CCCNC(=N)N)NC(=O)[C@H](CO)NC1=O [Example 48, AIC+SRS-((tBu)A)-PPI-((N-Me)C)+IPD-NH2] (H-AICSRS[tBuAla]PPI[NMeC]IPD-NH2; disulfide 3-11)
8.71
5) CC[C@H](C)[C@H](NC(=O)[C@H](C)N)C(=O)N[C@H]1CSSC(C)(C)[C@@H](C(=O)N[C@H](C(=O)N2CCC[C@H]2C(=O)N[C@@H](CC(=O)O)C(=O)O)[C@@H](C)CC)NC(=O)[C@H]([C@@H](C)CC)NC(=O)[C@@H]2C[C@@H]3CCCC[C@@H]3N2C(=O)[C@@H]2C=CCN2C(=O)[C@H](CC(C)C)NC(=O)[C@H](CO)NC(=O)[C@H](CCCNC(=N)N)NC(=O)[C@H](CO)NC1=O [Example 237] (H-AICSRSL[ΔPro][Oic]I[Pen]IPD-OH; disulfide 3-11)
8.03

====

# SYSTEM_NAME: human MASP1 (Homo sapiens, UniProt P48740)
# Construct: Ig-kappa secretion signal (N, cleaved yes)
# ASSAY_PROCEDURE: Biochemical human MASP1 assay (FRET substrate)
# CONDITION_CONTEXT: average IC50
# Excerpt: 2.1 Recombinant Expression and Protein Production of Recombinant Human MASP1 and MASP2 Active Proteases. The MASP1 or MASP2 expression vectors were transfected into the HEK293 (ATCC No. CRL-1573) cell line using Lipofectamine LTX® Reagent (Thermo-Fischer), as described by the manufacturer. […] The MASP1 and MASP2 proteins were purified from the conditioned media by affinity chromatography on Ni-NTA Superflow resin (Qiagen) as described by the manufacturer. 2.2 Biochemical Human MASP1 Assay […]
pIC50: −log10 of the molar value. Structures can show the parent of a compound that is named as a salt. Bridge positions count the residues as written; N and C are the ends. Square brackets hold non-standard residues; d marks the D form. Peptide text beside a SMILES is read from it. * marks the point of attachment. Oic = O=C(O)[C@@H]1C[C@@H]2CCCC[C@@H]2N1; Pen = CC(C)(S)[C@H](N)C(=O)O; X2 = N[C@@H](CN*)C(=O)O; Sar = CNCC(=O)O
In this section, each of the compounds is paired with its reported pIC50.
PROPERTY_LABEL: pIC50

1) CC[C@H](C)[C@H](NC(=O)[C@H](C)N)C(=O)N[C@H]1CSSC(C)(C)[C@@H](C(=O)N[C@H](C(=O)N2CCC[C@H]2C(=O)N[C@@H](CC(=O)O)C(N)=O)[C@@H](C)CC)NC(=O)[C@H]([C@@H](C)CC)NC(=O)[C@@H]2C[C@@H]3CCCC[C@@H]3N2C(=O)[C@@H]2CCCN2C(=O)[C@H](CC(C)C)NC(=O)[C@H](CO)NC(=O)[C@H](CCCNC(=N)N)NC(=O)[C@H](CO)NC1=O
8.65
2) CC[C@H](C)[C@H](NC(=O)CNC)C(=O)N[C@H]1CSSC(C)(C)[C@@H](C(=O)N[C@H](C(=O)N2CCC[C@H]2C(N)=O)[C@@H](C)CC)NC(=O)[C@H]([C@@H](C)CC)NC(=O)[C@@H]2C[C@@H]3CCCC[C@@H]3N2C(=O)[C@@H]2CCCN2C(=O)[C@H](CC(C)C)NC(=O)[C@H](CO)NC(=O)[C@H](CCCNC(=N)N)NC(=O)[C@H](CO)NC1=O [Example 109, ((N-Me)G)-IC+SRSLP-(Oic)-I-(Pen)+IP-NH2] (H-[Sar]ICSRSLP[Oic]I[Pen]IP-NH2; disulfide 3-11)
8.54
3) CC[C@H](C)[C@H](NC(=O)CNC)C(=O)N[C@H]1CSSC(C)(C)[C@@H](C(=O)N[C@H](C(=O)N2CCC[C@H]2C(=O)NC[C@H](N)C(=O)O)[C@@H](C)CC)NC(=O)[C@H]([C@@H](C)CC)NC(=O)[C@@H]2C[C@@H]3CCCC[C@@H]3N2C(=O)[C@@H]2CCCN2C(=O)[C@H](CC(C)C)NC(=O)[C@H](CO)NC(=O)[C@H](CCCNC(=N)N)NC(=O)[C@H](CO)NC1=O [Example 467] (H-[Sar]ICSRSLP[Oic]I[Pen]IP-X2; disulfide 3-11)
8.18
4) CCC(C)[C@H](NC(=O)[C@H]1NC(=O)[C@H]([C@@H](C)CC)NC(=O)[C@@H]2C[C@@H]3CCCC[C@@H]3N2C(=O)[C@@H]2CCCN2C(=O)[C@H](CC(C)C)NC(=O)[C@H](CO)NC(=O)[C@H](CCCNC(=N)N)NC(=O)[C@H](CO)NC(=O)[C@@H](NC(=O)[C@@H](NC(=O)[C@H](C)NC)[C@@H](C)CC)CSSC1(C)C)C(=O)N1CCC[C@H]1C(=O)N[C@@H](CC(=O)NCc1ccccc1)C(N)=O (stereo in doubt)
7.92
5) CC[C@H](C)[C@H](NC(=O)[C@H](C)N)C(=O)N[C@H]1CSSC(C)(C)[C@@H](C(=O)N[C@H](C(=O)N2CCC[C@H]2C(=O)N[C@@H](CC(=O)O)C(=O)O)[C@@H](C)CC)NC(=O)[C@H]([C@@H](C)CC)NC(=O)[C@@H]2C[C@@H]3CCCC[C@@H]3N2C(=O)[C@@H]2CCCN2C(=O)[C@H](CC(C)C)NC(=O)[C@H](CO)NC(=O)[C@H](CCCNC(=N)N)NC(=O)[C@H](CO)NC1=O [Example 29, (HCl Salt)]
8.61

====

# SYSTEM_NAME: rat MASP2 (Rattus norvegicus)
# Construct: Ig-kappa secretion signal (N, cleaved yes)
# Sequence (Q9JJS8 296-443): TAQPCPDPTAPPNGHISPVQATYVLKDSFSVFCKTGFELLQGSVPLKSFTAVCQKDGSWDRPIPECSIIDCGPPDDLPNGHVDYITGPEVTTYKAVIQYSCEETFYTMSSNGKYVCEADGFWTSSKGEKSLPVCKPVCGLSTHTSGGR
# Sequence (Q9JJS8 444-685): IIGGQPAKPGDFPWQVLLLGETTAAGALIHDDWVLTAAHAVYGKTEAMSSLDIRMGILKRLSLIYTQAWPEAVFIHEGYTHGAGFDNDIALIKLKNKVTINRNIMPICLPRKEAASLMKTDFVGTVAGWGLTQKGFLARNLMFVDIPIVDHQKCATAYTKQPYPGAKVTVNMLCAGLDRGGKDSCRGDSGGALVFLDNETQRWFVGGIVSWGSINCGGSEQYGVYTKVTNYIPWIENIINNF
# ASSAY_PROCEDURE: Biochemical rat MASP2 assay (FRET substrate)
# CONDITION_CONTEXT: average IC50; recombinant rat MASP2, FRET substrate
pIC50: −log10 of the molar value. Where a name gives a salt, the structure may show the parent alone. Numbered stars: 1 amine (or outer) side, 2 acyl side, 3 side chain; on linkers, the order of the positions; unused ones are H or OH. Bridge positions count the residues as written; N and C are the ends. Square brackets hold non-standard residues; d marks the D form. Peptide text beside a SMILES is read from it. X1 = O=C(C1[C@H]2CCCC[C@H]2C[C@H]1C(=O)[*:2])[C@@H]1CCCN1[*:1]; Pen = CC(C)(S)[C@H](N)C(=O)O; Sar = CNCC(=O)O
The entries below come with measured pIC50 values attached.
PROPERTY_LABEL: pIC50

1) [2H][C@@H]1[C@H]([2H])CN2C(=O)[C@H](CC(C)C)NC(=O)[C@H](CO)NC(=O)[C@H](CCCNC(=N)N)NC(=O)[C@H](CO)NC(=O)[C@@H](NC(=O)[C@@H](NC(=O)[C@H](C)N)[C@@H](C)CC)CSSC(C)(C)[C@@H](C(=O)N[C@H](C(=O)N3CCC[C@H]3C(=O)N[C@@H](CC(=O)O)C(=O)O)[C@@H](C)CC)NC(=O)[C@H]([C@@H](C)CC)NC(=O)[C@@H]3C[C@@H]4CCCC[C@@H]4N3C(=O)[C@H]12
7.77
2) CC[C@H](C)[C@H](NC(=O)[C@H](C)N)C(=O)N[C@H]1CSSC[C@@H](C(=O)N[C@H](C(=O)N2CCC[C@H]2C(=O)N[C@@H](CC(=O)O)C(N)=O)[C@@H](C)CC)N(C)C(=O)[C@H]([C@@H](C)CC)NC(=O)[C@@H]2C[C@@H]3CCCC[C@@H]3N2C(=O)[C@@H]2CCCN2C(=O)[C@H](CC(C)C)NC(=O)[C@H](CO)NC(=O)[C@H](CCCNC(=N)N)NC(=O)[C@H](CO)NC1=O
7.96
3) CC[C@H](C)[C@H](NC(=O)[C@H](C)N)C(=O)N[C@H]1CSSC(C)(C)[C@@H](C(=O)N[C@H](C(=O)N2CCC[C@H]2C(=O)N[C@@H](CC(=O)O)C(=O)O)[C@@H](C)CC)NC(=O)[C@H]([C@@H](C)CC)NC(=O)[C@@H]2C[C@@H]3CCCC[C@@H]3N2C(=O)[C@@H]2CCCN2C(=O)[C@H](CC(C)C)NC(=O)[C@H](CO)NC(=O)[C@H](CCCNC(=N)N)NC(=O)[C@H](CO)NC1=O [Example 29, (HCl Salt)]
7.76
4) CCC(C)[C@H](NC(=O)[C@H]1NC(=O)[C@H]([C@@H](C)CC)NC(=O)[C@@H]2C[C@@H]3CCCC[C@@H]3N2C(=O)[C@@H]2CCCN2C(=O)[C@H](CC(C)C)NC(=O)[C@H](CO)NC(=O)[C@H](CCCNC(=N)N)NC(=O)[C@H](CO)NC(=O)[C@@H](NC(=O)[C@@H](NC(=O)[C@H](C)NC)[C@@H](C)CC)CSSC1(C)C)C(=O)N1CCC[C@H]1C(=O)N[C@@H](CC(=O)NCc1ccccc1)C(N)=O (stereo in doubt)
6.82
5) CC[C@H](C)[C@H](NC(=O)CNC)C(=O)N[C@H]1CSSC(C)(C)[C@@H](C(=O)N[C@H](C(=O)N2CCC[C@H]2C(N)=O)[C@@H](C)CC)NC(=O)[C@H]([C@@H](C)CC)NC(=O)[C@@H]2C[C@@H]3CCCC[C@@H]3C2C(=O)[C@@H]2CCCN2C(=O)[C@H](CC(C)C)NC(=O)[C@H](CO)NC(=O)[C@H](CCCNC(=N)N)NC(=O)[C@H](CO)NC1=O (some centres unmarked) [Example 67, (HCl Salt)] (H-[Sar]ICSRSL[X1]I[Pen]IP-NH2; disulfide 3-10)
7.44
